- test_details: NCI Yeast Anticancer Drug Screen. Data for the cln2 rad14 strain (AID 165);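 note: 0% = growth equal to vehicle treated cultures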
- assay_setup: S. cerevisiae cln2 rad14 strain, at 5.0 µM (retest, dose inferred, filed as 0.5), stronger effect = higher value
This is part of a sample that, as a whole, favours compounds with a hit. Of some 79,000 tested, about 15% had one in any assay. The source made the active and inactive calls. Cut-off read from the data, not from the text of the source: active = growth inhibition above about 70%; inactive = the rest.
Kindly state growth inhibition for each of the entries shown.

GET /value?item= `O=c1oc(-c2ccccc2)nc2ccccc12` &field=growth inhibition returns 4% (inactive)

GET /value?item= `CC(/C=N/NS(=O)(=O)c1ccc(C)cc1)=C(c1ccccc1)c1ccccc1` &field=growth inhibition returns -10% (inactive)

GET /value?item= COC1OC(CO)C(O)C(OC(=O)c2ccc([N+](=O)[O-])cc2)C1OS(=O)(=O)c1ccc(C)cc1 (stereo not given) &field=growth inhibition returns -1% (inactive)

GET /value?item= `Cc1ccccc1Nc1nc(-c2ccccc2)nc(N)c1N=O` &field=growth inhibition returns 13% (inactive)

GET /value?item= COC(=O)/N=C/CCC(O)NC(=O)OC (stereo not given) &field=growth inhibition returns -1% (inactive)

GET /value?item= CCCCCCCCCCCCCCCC1C(N)C(=O)N(C)N1C (stereo not given) &field=growth inhibition returns -30% (inactive)

GET /value?item= `COc1ccc(NS(=O)(=O)c2ccc(F)cc2)cc1` &field=growth inhibition returns 6% (inactive)

GET /value?item= `Cc1nc2c(Cl)cccc2c2ccccc12` &field=growth inhibition returns -10% (inactive)

GET /value?item= `CCCCC(=O)c1nc(N(CC2CCCCC2)C(=O)NC)sc1N` &field=growth inhibition returns -1% (inactive)

GET /value?item= CN1C(=O)OC(C)(c2ccccc2)C1=O (stereo not given) &field=growth inhibition returns 2% (inactive)

GET /value?item= `Nc1ncnc2c1c(-c1ccc(Cl)cc1)cn2-c1ccccc1` &field=growth inhibition returns 2% (inactive)

GET /value?item= CC1CCCC(C(c2c[nH]c3ccccc23)c2c[nH]c3ccccc23)C1=O (stereo not given) &field=growth inhibition returns 0% (inactive)

GET /value?item= `CCCCCCOC(=O)Nc1ccc(S(=O)(=O)N2CCCCC2)cc1` &field=growth inhibition returns -87% (inactive)

GET /value?item= `Nc1ccc(S(=O)(=O)N2CCCc3ccccc32)cc1` &field=growth inhibition returns 2% (inactive)

GET /value?item= `CCOC(=O)C(C=O)(C=O)c1ccccc1` &field=growth inhibition returns 4% (inactive)

GET /value?item= Cc1cc(C)c(O)c(C2CC3CCC2(C)C3(C)C)c1 (stereo not given) &field=growth inhibition returns 4% (inactive)

GET /value?item= `O/N=C(/Cc1nc2cc(Cl)c(Cl)cc2nc1C/C(=N/O)c1ccncc1)c1ccncc1` &field=growth inhibition returns 6% (inactive)

GET /value?item= `COc1ccc(N=Nc2ccc(O)cc2)cc1` &field=growth inhibition returns 7% (inactive)

GET /value?item= `Nc1ccc2nc3ccccc3nc2c1` &field=growth inhibition returns -10% (inactive)

GET /value?item= `c1ccc2c(c1)oc1cc3ccncc3cc12` &field=growth inhibition returns 9% (inactive)

###

Kindly state growth inhibition for each of the entries shown.
- test_details: NCI Yeast Anticancer Drug Screen. Data for the cln2 rad14 strain (AID 165);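 note: 0% = growth equal to vehicle treated cultures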
- assay_setup: S. cerevisiae cln2 rad14 strain, at 50.0 µM (retest, dose inferred, filed as 5.0), stronger effect = higher value
- Procedure: Growth inhibition of yeast strains with defined genetic alterations is measured as a screen for potential anti-cancer activity. Selected strains with alterations in DNA damage repair or cell cycle control were exposed to compounds and growth inhibition was measured relative to vehicle treated controls. The strain used in this assay is cln2 rad14
About 79,000 compounds went through this panel and 15% of them were active in at least one assay; those are over-represented in the sample as a whole.
Report only the number, with the unit % understood.

GET /value?item= `CCOC(=O)C1=C(C)NC(C)=C(C(=O)OCC)C1c1ccnc2ccccc12` &field=growth inhibition returns 93

GET /value?item= `CC(=O)c1c(O)c2cccc3c2n(c1=O)CCC3` &field=growth inhibition returns 98

GET /value?item= CC1CCCC(C(c2c[nH]c3ccccc23)c2c[nH]c3ccccc23)C1=O (stereo not drawn) &field=growth inhibition returns 98
